# Measurement Protocol: melting temperature; fluorescence melt of hairpins on a sequencing array, two-state fit, raised by 9.35 °C to match UV melts
# Study Conditions: sodium 0.088 M
Quantity Measured: Tm

                            sequence_text  quantity_measured  measured
 0  GGCCGTGGAAACACGACC ((.((((....)))).))                 Tm     55 °C
 1  GTAACTCGAAAGAGGTAC (((.(((....))).)))                 Tm   51.6 °C
 2  GCTTCGCGAAAGCAACGC ((.(.((....)).).))                 Tm   29.2 °C
 3  GCCGTGCGAAAGCGCCGC ((.(.((....)).).))                 Tm     50 °C
 4  GGCCGTGCGAAAGCAGCC (((..(((....))))))                 Tm   46.6 °C
 5  GTACTCGAAAGAGCGTAC ((((((....)))..)))                 Tm   28.5 °C
 6  GGCCCAGGAAACTGGGTC (.(((((....))))).)                 Tm   59.8 °C
 7  GAAAGGCGAAAGCCATTC (((.(((....))).)))                 Tm   41.4 °C
 8  GGCGACCGAAAGGTGGCC (((.(((....))).)))                 Tm   67.9 °C
 9      GATCGTTCAAACGATC ((((((....))))))                 Tm     55 °C
10        GATCCTTCAAGGATC ((((((...))))))                 Tm   54.7 °C
11  GGACGACGAAAGTCATCC (((.(((....))).)))                 Tm   48.8 °C
12  GCATGGCGAAAGCGGTGC (((..((....))..)))                 Tm   56.1 °C
13  GAATCCGGAAACGGACTC ((.((((....)))).))                 Tm   36.2 °C
14  GACTCCGAAAGGAAGGTC ((((((....)))..)))                 Tm   38.3 °C
15  GCGAATGGAAACATCCGC (((.(((....))).)))                 Tm   45.4 °C
16  GGCAAGCGAAAGCTCGCC (((.(((....))).)))                 Tm   59.7 °C
17      GATCCTATCAAGGATC ((((((....))))))                 Tm   54.6 °C
18  GCTCTGCGAAAGCACTGC ((..(((....)))..))                 Tm   31.6 °C
19  GTCTCCGAAAGGACCGAC ((((((....)))..)))                 Tm   28.2 °C
20  GCCAAGCGAAAGCCTCGC ((.(.((....)).).))                 Tm   23.1 °C
21              GCGGCAGCCCGC ((((....))))                 Tm   59.1 °C
22  GCTTACGAAAGTATGAGC ((((((....)))..)))                 Tm   34.7 °C
23      GGGATTGAAAAATCCC ((((((....))))))                 Tm   55.8 °C
24  GGTCTCGAAAGAGGAACC ((((((....)))..)))                 Tm   35.1 °C
25              GCGTGAAAACGC ((((....))))                 Tm   58.5 °C
26  GATTACCGAAAGGTCATC (((.(((....))).)))                 Tm   38.2 °C
27    GTTGGACGAAAGTCAAC (((.(((....))))))                 Tm   48.6 °C
28  GTATGCGCGAAAGCGTAC (((..(((....))))))                 Tm   31.3 °C
29  GGGCCTGGAAACAGGCTC (.(((((....))))).)                 Tm   61.6 °C
30      GATCACGGCCGTGATC ((((((....))))))                 Tm   66.3 °C
31  GGATACGGAAACGTATCC (((((((....)))))))                 Tm   64.2 °C
32  GTCCCCCGAAAGGGTGAC (((.(((....))).)))                 Tm   52.5 °C
33      GATCCGAGAGCGGATC ((((((....))))))                 Tm   54.6 °C
34  GCGCAGGGAAACTTGCGC (((((.(....).)))))                 Tm   60.2 °C
35  GTAATTCGAAAGAAATAC (((.(((....))).)))                 Tm     33 °C
36  GTACCTGGAAACAGGTGC (.(((((....))))).)                 Tm   52.4 °C
37      GATCCAGGGCTGGATC ((((((....))))))                 Tm   52.4 °C
38  GTCGGGGGAAACCTCGAC ((((.((....)).))))                 Tm   55.5 °C
39  GCCACCGAAAGGTCGGGC ((((((....)))..)))                 Tm     48 °C
40  GCTAAGCGAAAGCATGGC ((.(.((....)).).))                 Tm   39.7 °C
41  GTCAGGACGAAAGTCGAC (((..(((....))))))                 Tm   41.3 °C
42  GTACATCGAAAGATCTAC (((.(((....))).)))                 Tm   25.1 °C
43  CGGTCGCGGAAACGCCCG (((..(((....))))))                 Tm   47.1 °C
44  GGACTGGGAAACCAGTTC (.(((((....))))).)                 Tm   50.6 °C
45  GTGTCTCGAAAGAGTCAC (((.(((....))).)))                 Tm   49.4 °C
46  GCACTGCGAAAGCCCTGC (((..((....))..)))                 Tm   28.8 °C
47        GATCTCTTAGAGATC ((((((...))))))                 Tm   53.1 °C
48      GAACTCGAAAGAGTTC ((((((....))))))                 Tm   61.6 °C
49  GCAATCGAAAGATGCTGC ((((((....)))..)))                 Tm   51.1 °C

---

# Measurement Protocol: melting temperature; fluorescence melt of hairpins on a sequencing array, two-state fit, raised by 9.35 °C to match UV melts
# Study Conditions: sodium 0.088 M
Quantity Measured: Tm (°C)

                           sequence_text  quantity_measured  measured
0  GCTTGGCGAAAGCGGAGC (((..((....))..)))                 Tm      48.6
1      GATCTCAGCGGAGATC ((((((....))))))                 Tm      53.7
2  GCAATAACGAAAGTTTGC (((..(((....))))))                 Tm      41.3
3  GAAGCGGGAAACCACTTC ((((.((....)).))))                 Tm      41.8
4              GCGACTAGTCGC ((((....))))                 Tm      65.2
5    GAGGACGAAAGTCACTC ((((((....))).)))                 Tm      43.1

---

// Tm lookup, one value per entry
# Measurement Protocol: melting temperature; fluorescence melt of hairpins on a sequencing array, two-state fit, raised by 9.35 °C to match UV melts
# Study Conditions: sodium 0.088 M
Quantity Measured: Tm (°C)

>>> print(df.to_string())
                           sequence_text  measured
0      GATCTATCGGTAGATC ((((((....))))))      39.1
1      GATCCAAAACTGGATC ((((((....))))))      45.6
2  GTGACAGGAAACTGTTAC ((.((((....)))).))      45.4
3  GCGTTCTCGAAAGAGCGC (((..(((....))))))      51.1
4  GCCTGGCGAAAGCCAAGC ((.((((....)))).))      57.7
5  GCTGTGCGAAAGCAATGC ((..(((....)))..))      42.8
